Exercise: for every item that follows, state its recorded apparent KD of MS2 coat protein.
System: MS2 coat protein
Test: apparent KD of MS2 coat protein, switch OFF state (with FMN for OFF switches, without FMN for ON switches); designed switch direction (-1 OFF switch, 1 ON switch): 1; higher = weaker reporter binding
Details: FMN input: 0 or 200 uM; Eterna round: R93 (includes R88 designs)
Field format: number, assumed nM, no unit text.

Checklist item: apparent KD of MS2 coat protein tested on MS2 coat protein, entry AAAAAACAUGAGGAUCACCCAUGUCUUUUGACAUGAGGAUAUGUACAGACUUCGGUCUGUACAGAAGGCAUGUAAA [SS1 - 1028] , value? 397

Next record, please: ACGAGGAAGAGAGAGGAUAUCCAAAGGAAAACAUGAGGAUCACCCAUGUAAAAGGUAGGAAAUUGGGAGAAGGCUCAAGAGAGAG [salish99-ss2-069] 34.6

Next entry: GUAUAUAUGAGGUAGGAUAUCCAAAAUAAAACAUGAGGAUCACCCAUGUAAAUAAAUAAUAAAUGGGAGAAGGACCACAUAUAUAC [Ex6 sub 3] 34.2

Continue with AAAAAAUAAAAAAAGGAUAUAAAUCCUAGAACAUGAGGAUCACCCAUGUACUAGGAAAAAAUAAAAAAGAAGGAAAAAUAAAAAA [SS2: MS2 19] 17.3

Please do the same for GACUAACAUGAGGAUCACCCAUGUAUUCAAACAUGAGGAUAUAUAACACAUCAUCGACGGAUAGAAGGCAUAGAUA [JR_SS001_Sub1207] as well. 71.7

Queued: GAUCCAACUAGUCAGGAUAUCAGGCGUAAGACAUGAGGAUCACCCAUGUCCUAAGAACAAGUAACUGAGAAGGGACAGGGCGACC [JR_SS002_Sub412] 74.3
